Measured IC50 values are reported for all entries that follow.
- Target under test: HDM2 (Homo sapiens, UniProt Q00987)
- Construct: Thioredoxin (N); made in house; host or cells: E. coli strain BL21(DE3)Rosetta
- Sequence (Q00987 17-125): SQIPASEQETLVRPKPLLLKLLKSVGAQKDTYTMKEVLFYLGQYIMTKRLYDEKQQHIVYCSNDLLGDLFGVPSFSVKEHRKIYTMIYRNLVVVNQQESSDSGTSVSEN
- Experiment description: HDM2 FRET assay (inhibition of binding of FITC labeled p53-pocket peptide to HDM2)
- Experimental parameters: 0.5 nM HDM2 (residues 17 to 125), 3nM peptide, two hour incubation at room temperature; read-out: FRET IC50
Express the result in nM but write the number alone.

Known IC50 results, listed for orientation:
Cc1cncc(-c2nc(-c3noc(=O)[nH]3)nc3nc(N4CCOC[C@H]4c4ccccc4)n(C[C@H]4CC[C@H](C)CC4)c23)c1 [Example 16.115] : 3.92
C[C@H]1CC[C@H](Cn2c(N3CCOC[C@H]3c3ccccc3F)nc3nc(-c4noc(=O)[nH]4)nc(-c4cncc(Cl)c4)c32)CC1 [Example 16.92] : 0.585
C[C@H]1CC[C@H](Cn2c(N3CCOC[C@H]3c3ccccc3)nc3nc(-c4noc(=O)[nH]4)nc(-c4ccccc4)c32)CC1 [Example 16.12] : 10.1
C[C@H]1OCCN(c2nc3nc(-c4n[nH]c(=O)o4)nc(-c4cccc(Cl)c4)c3n2C[C@H]2CC[C@H](C)CC2)[C@@H]1c1ccccc1 [Example 16.142] : 1.5

# lookup: HDM2 (Homo sapiens, UniProt Q00987) IC50, key = C[C@H]1CC[C@H](Cn2c(N3CCO[C@H]4CCC[C@@H]43)nc3nc(-c4n[nH]c(=O)o4)nc(-c4cncc(Cl)c4)c32)CC1 [Example 16.91]
403

# lookup: HDM2 (Homo sapiens, UniProt Q00987) IC50, key = C[C@@H](Nc1nc(-c2nc(=O)n(C)[nH]2)nc2nc(N3CCOC[C@H]3c3ccccc3)n(C[C@H]3CC[C@H](C)CC3)c12)C1CCC1 [Example 12.19]
1.61

----------
- Target under test: HDM2 (Homo sapiens)
- Construct: Thioredoxin (N); made in house; host or cells: E. coli strain BL21(DE3)Rosetta
- Experiment description: HDM2 FRET assay (inhibition of binding of FITC labeled p53-pocket peptide to HDM2)
- Experimental parameters: 0.5 nM HDM2 (residues 17 to 125), 3nM peptide, two hour incubation at room temperature; read-out: FRET IC50
Criterion: IC50 strictly under 5 nM. Met: t. Not met: f.

Does the reported IC50 of the following molecule sit strictly below 5 nM? C[C@H]1OCCN(c2nc3nc(-c4n[nH]c(=O)o4)nc(-c4cncc(Cl)c4)c3n2C[C@H]2CC[C@H](C)CC2)[C@@H]1c1ccccc1
t

Does the reported IC50 of the following molecule sit strictly below 5 nM? Cc1cccc(-c2nc(-c3noc(=O)[nH]3)nc3nc(N4CCOC[C@H]4C)n(C[C@H]4CC[C@H](C)CC4)c23)c1
f

----------
- Target under test: HDM2 (Homo sapiens, UniProt Q00987)
- Construct: Thioredoxin (N); made in house; host or cells: E. coli strain BL21(DE3)Rosetta
- Experiment description: HDM2 FRET assay (inhibition of binding of FITC labeled p53-pocket peptide to HDM2)
- Experimental parameters: Table 9; read-out: FRET IC50
Measured IC50 values are reported for all entries that follow.
Just so you know, I need the unit written after the number.

Known IC50 results, listed for orientation:
C[C@H](Nc1nc2nc(C(=O)O)nc(N[C@H](C)C3CCC3)c2n1Cc1ccc(C(F)(F)F)cc1)c1cccc(F)c1 [Example 9.39] : 0.000753 µM
C[C@@H](Nc1nc(C(=O)O)nc2nc(N3CCCC[C@H]3c3ccccc3)n(Cc3ccc(C(F)(F)F)cc3)c12)C1CCC1 [Example 9.63] : 0.00306 µM
C[C@H](Nc1nc2nc(C(=O)O)nc(N[C@H](C)C3CCC3)c2n1Cc1ccc(C(F)(F)F)cc1)c1ccccc1 [Example 9.16] : 0.00191 µM
C[C@@H](Nc1nc(-c2noc(=O)[nH]2)nc2nc(N(C)CCCN3CCCC3)n(Cc3ccc(C(F)(F)F)cc3)c12)C1CCC1 [Example 9.100] : 0.148 µM
CC(C)CC1CCCN1c1nc2nc(-c3noc(=O)[nH]3)nc(N[C@H](C)C3CCC3)c2n1Cc1ccc(C(F)(F)F)cc1 (some centres unmarked) [Example 9.91] : 0.0194 µM
CCCN(c1nc2nc(C(=O)O)nc(N[C@H](C)C3CCC3)c2n1Cc1ccc(C(F)(F)F)cc1)[C@@H](C)c1ccccc1 [Example 9.49] : 0.0228 µM
C[C@@H](Nc1nc(-c2noc(=O)[nH]2)nc2nc(N3CCCC3Cc3cccnc3)n(Cc3ccc(C(F)(F)F)cc3)c12)C1CCC1 (some centres unmarked) [Example 9.105] : 0.014 µM
C[C@@H](Nc1nc(-c2noc(=O)[nH]2)nc2nc(N(C)CC3CCCN(C)C3)n(Cc3ccc(C(F)(F)F)cc3)c12)C1CCC1 (some centres unmarked) [Example 9.99] : 0.045 µM

# lookup: HDM2 (Homo sapiens, UniProt Q00987) IC50, key = C[C@@H](Nc1nc(C(=O)O)nc2nc(N3CCOC[C@@H]3c3ccccc3)n(Cc3ccc(C(F)(F)F)cc3)c12)C1CCC1 [Example 9.51]
0.12 µM

# lookup: HDM2 (Homo sapiens, UniProt Q00987) IC50, key = C[C@@H](Nc1nc(C(=O)O)nc2nc(N3CCCCC3C3CCCCC3)n(Cc3ccc(C(F)(F)F)cc3)c12)C1CCC1 (some centres unmarked) [Example 9.122]
0.00459 µM

# lookup: HDM2 (Homo sapiens, UniProt Q00987) IC50, key = CC(c1cccc(F)c1)N(C)c1nc2nc(-c3noc(=O)[nH]3)nc(N[C@H](C)C3CCC3)c2n1Cc1ccc(C(F)(F)F)c(F)c1 (some centres unmarked) [Example 9.73]
0.0162 µM

# lookup: HDM2 (Homo sapiens, UniProt Q00987) IC50, key = COCC1CN(c2nc3nc(C(=O)O)nc(N[C@H](C)C4CCC4)c3n2Cc2ccc(C(F)(F)F)cc2)CCO1 (some centres unmarked) [Example 9.24]
0.0729 µM

# lookup: HDM2 (Homo sapiens, UniProt Q00987) IC50, key = CC[C@@H](c1ccccc1)N(C)c1nc2nc(C(=O)O)nc(N[C@H](C)C3CCC3)c2n1Cc1ccc(C(F)(F)F)cc1 [Example 9.58]
0.0164 µM

# lookup: HDM2 (Homo sapiens, UniProt Q00987) IC50, key = C[C@@H](Nc1nc(C(=O)O)nc2nc(N3CCOC(C(F)(F)F)C3)n(Cc3ccc(C(F)(F)F)cc3)c12)C1CCC1 (some centres unmarked) [Example 9.23]
0.0252 µM

Provenance of the data: patent EP2951180B1
